experimental.system: Snurportin-1 (Homo sapiens) + GTP-binding nuclear protein Ran (Homo sapiens) + Importin subunit beta-1 (Homo sapiens) (UniProt O95149+P62826+Q14974)
experiment.notes: qHTS Assay for Inhibitors of RanGTP induced Rango (Ran-regulated importin-beta cargo) - Importin beta complex dissociation; note: nearly all actives have a fitted effect of over 45% in size
protocol.conditions: Biochemical FRET Rango-importin beta; series mostly up to 46.1 µM
In all, about 340,000 compounds went through this assay and about 240 (0.071%) were called active. Another 5% or so got no clear call; they are omitted. Calls come from the whole dose curve. Many of the other results were omitted from the sample, so actives are more common in it than they were.
The reply should be one of these categories: active, inactive

Example cases with answers are listed next.
compound: CCOc1cc(C(=O)Nc2ccc(S(=O)(=O)Nc3cnc4ccccc4n3)cc2)cc(OCC)c1OCC
cat: inactive
//
compound: CC(C)Sc1nc(N)nc2c1ncn2C1OC(CO)C(O)C1O (stereo not given)
cat: inactive
//
compound: Cc1cccc(CC2(O)C(=O)Nc3ccccc32)n1 (stereo not given)
cat: inactive
//
compound: Cc1ccc(-c2csc(C(C#N)=C(O)CN3CCN(C(=O)c4ccco4)CC3)n2)cc1
cat: inactive

Kindly review the next compound as well.
[ask] Could you check what this test reported for O=C(/C=C/Nc1ccc(S(=O)(=O)Nc2cnc3ccccc3n2)cc1)c1cccnc1 ?
[reply] active

----------
experimental.system: Snurportin-1 (Homo sapiens) + GTP-binding nuclear protein Ran (Homo sapiens) + Importin subunit beta-1 (Homo sapiens) (UniProt O95149+P62826+Q14974)
experiment.notes: qHTS Assay for Inhibitors of RanGTP induced Rango (Ran-regulated importin-beta cargo) - Importin beta complex dissociation; note: nearly all actives have a fitted effect of over 45% in size
protocol.conditions: Biochemical FRET Rango-importin beta; series mostly up to 46.1 µM
Screen size: about 340,000 compounds; about 240 (0.071%) were called active. Calls follow the shape of the full dose curve. What follows is part of a selection rich in actives, with near analogues and random picks from the rest.
Use one of these outcomes when replying: active, inactive

Here's what some known entries look like.
compound: CCc1c(Nc2ccccc2C)nc(N)[nH]c1=O
cat: inactive
--
compound: Cn1c(NC(=O)c2ccccc2)nc2ccccc21
cat: inactive
--
compound: NC1=NOC(=O)C1C1CCCCC1 (stereo not drawn)
cat: inactive
--
compound: Cc1nc(N)sc1-c1ccccc1
cat: inactive
--
compound: COc1ccc(-c2ccc3c(c2)[C@@H]2C[C@H](N(C)S(=O)(=O)c4ccccc4)[C@H]([C@H](C)O)C(=O)N2CC3)cc1
cat: inactive
--
compound: O=C(Cc1ccc(Cl)cc1)c1ccccc1
cat: inactive
--
compound: Cn1c(-c2ccc(C(=O)c3ccccc3)s2)nc2ccccc21
cat: active
--
compound: CC1=CC(=NNS(=O)(=O)c2ccc([N+](=O)[O-])cc2)CC(C)(C)C1
cat: inactive

Now turn to the next compound.
[ask] Test call, this compound: O=C(Nc1ccccc1)Oc1cccc2cccnc12
[reply] inactive

----------
experimental.system: Snurportin-1 (Homo sapiens) + GTP-binding nuclear protein Ran (Homo sapiens) + Importin subunit beta-1 (Homo sapiens) (UniProt O95149+P62826+Q14974)
experiment.notes: qHTS Assay for Inhibitors of RanGTP induced Rango (Ran-regulated importin-beta cargo) - Importin beta complex dissociation; note: nearly all actives have a fitted effect of over 45% in size
protocol.conditions: Biochemical FRET Rango-importin beta; series mostly up to 46.1 µM
The whole screen tested about 340,000 compounds, of which about 240 (0.071%) were called active. Inconclusive results (about 5%) are left out. Calls follow the shape of the full dose curve. The sample holds actives, similar compounds and a random draw of the others, so the mix is not that of the screen.
Assign a class; possible classes are True = active, False = inactive

compound: O=C1C(Cl)=C(Oc2ccccc2)C(=O)c2ccccc21
cat: False

compound: Oc1cccc(CCc2ccccn2)c1
cat: False

compound: O=C1CC(C(=O)O)NC(=S)N1 (stereo not drawn)
cat: False

compound: CCCC(O)(c1ccccc1)C(c1ccccc1)c1ccccn1 (stereo not drawn)
cat: False

compound: CC(=O)CSc1nc(CCc2ccccc2)c(C#N)c(=O)[nH]1
cat: False

compound: O=C(Cc1ccc([N+](=O)[O-])cc1)NCCc1ccc2c(c1)OCO2
cat: False

compound: CSc1ncnc2c1ncn2CC(=O)C1CCC2C3CCC4=CC(=O)CCC4(C)C3CCC12C (stereo not drawn)
cat: False

compound: COc1ccc(C(=O)Nc2cccc(/C=C(/CCC(=O)O)c3nc4ccccc4s3)c2)cc1
cat: False

[ask] How did this test come out for CN(C(=O)c1cccc(NC(=O)Cc2ccc(NC(=O)C3CCCN(C(=O)C4CC4)C3)cc2)c1)C1CC1 (stereo not drawn) ?
[reply] False
